System: U87
Assay notes: 3D co-culture of U87 glioblastoma cells with brain cell matrix, growth inhibition
Type: cell-based
Experimental setup: Homo sapiens, U-87 MG; U87, 3D co-culture with brain cell matrix; read-out: IC50 TMZ 3D
pIC50: −log10 of the molar value.
Observable: pIC50

**Q:** Any idea what pIC50 was measured for Cn1nnc2c(C(N)=O)ncn2c1=O [TMZ, Temozolomide] ?
**A:** ~6.00

---

Tested on: A172
Assay notes: 2D culture of A172 glioblastoma cells, growth inhibition
Type: cell-based
Experimental setup: Homo sapiens, A 172; A172, 2D culture; read-out: IC50 TMZ 2D
Observable: IC50

**Q:** Return reported IC50; argument: Cn1nnc2c(C(N)=O)ncn2c1=O [TMZ, Temozolomide]
**A:** ~25 µM

---

Tested on: U87
Assay notes: 2D culture of U87 glioblastoma cells, growth inhibition
Type: cell-based
Experimental setup: Homo sapiens, U-87 MG; U87, 2D culture; read-out: IC50 TMZ 2D
pIC50: −log10 of the molar value.
Observable: pIC50

**Q:** Entry under review: Cn1nnc2c(C(N)=O)ncn2c1=O [TMZ, Temozolomide] . Reported pIC50?
**A:** ~4.92

The measurements presented in this section are drawn from patent US20140154735A1.
